- System: IL-17 production in human peripheral blood mononuclear cells (PBMC)
- assay.comment: IL-17 production in PMA/ionomycin-stimulated PBMC (ELISA)
- Assay type: cell-based
- run.conditions: Homo sapiens; PMA/ionomycin-stimulated PBMC, 48 h or 72 h; read-out: absolute IC50 of IL-17 inhibition
pIC50: −log10 of the molar value.
reported.property: pIC50

- CCN(CCO)CCCC(C)Nc1ccnc2cc(Cl)ccc12 (racemic) [HCQ, Hydroxychloroquine]: 4.00 to 4.30

* * *

Here's what we have: pIC50 numbers for human ether-a-go-go-related gene (hERG) voltage-gated potassium channel (Homo sapiens).
pIC50: −log10 of the molar value.
reported.property: pIC50

* CCN(CCO)CCC[C@H](C)Nc1ccnc2cc(Cl)ccc12 [S-HCQ, S-hydroxychloroquine] | 4.96
* CCN(CCO)CCCC(C)Nc1ccnc2cc(Cl)ccc12 (centres unmarked) [R-HCQ, R-hydroxychloroquine] | 5.38
